Target: α2-Receptor (Rattus norvegicus)
Construct: the cortical tissue rapidly dissected; from tissue; host or cells: cortical tissue of male Wistar rats, washed membrane suspension
Sequence (P22909 whole entry): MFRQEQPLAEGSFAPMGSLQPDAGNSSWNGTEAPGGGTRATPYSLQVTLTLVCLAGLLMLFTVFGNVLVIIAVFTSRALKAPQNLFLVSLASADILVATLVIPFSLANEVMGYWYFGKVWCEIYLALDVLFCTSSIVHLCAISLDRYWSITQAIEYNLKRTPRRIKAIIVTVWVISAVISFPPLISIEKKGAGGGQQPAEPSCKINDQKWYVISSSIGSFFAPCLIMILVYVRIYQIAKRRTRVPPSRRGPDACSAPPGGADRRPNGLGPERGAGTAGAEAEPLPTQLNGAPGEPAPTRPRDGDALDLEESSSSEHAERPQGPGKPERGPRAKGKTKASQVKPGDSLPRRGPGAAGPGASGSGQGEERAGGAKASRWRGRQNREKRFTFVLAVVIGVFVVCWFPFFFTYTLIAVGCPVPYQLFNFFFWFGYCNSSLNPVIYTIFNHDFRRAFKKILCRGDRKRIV
Test: [^3 H]-Clonidine Binding: α2-Receptor
Set-up: species or system rat (male Wistar)
Details: rat cortical tissue; 3 nM [^3 H]-clonidine; 25° C., 20 min; Table 2; read-out: [^3 H]-Clonidine Binding IC50

compound: CCCN(c1ccncc1)c1ccc2c(ccn2C)c1 [maleate]
study-target: α2-Receptor (Rattus norvegicus)
result-unit: µM
IC50: 0.33

* * *

Molecular target: Brain AChE (acetylcholinesterase) (Rattus norvegicus)
Construct: corpora striata dissected free, weighed and homogenized in 19 volumes
Sequence (P37136 32-614): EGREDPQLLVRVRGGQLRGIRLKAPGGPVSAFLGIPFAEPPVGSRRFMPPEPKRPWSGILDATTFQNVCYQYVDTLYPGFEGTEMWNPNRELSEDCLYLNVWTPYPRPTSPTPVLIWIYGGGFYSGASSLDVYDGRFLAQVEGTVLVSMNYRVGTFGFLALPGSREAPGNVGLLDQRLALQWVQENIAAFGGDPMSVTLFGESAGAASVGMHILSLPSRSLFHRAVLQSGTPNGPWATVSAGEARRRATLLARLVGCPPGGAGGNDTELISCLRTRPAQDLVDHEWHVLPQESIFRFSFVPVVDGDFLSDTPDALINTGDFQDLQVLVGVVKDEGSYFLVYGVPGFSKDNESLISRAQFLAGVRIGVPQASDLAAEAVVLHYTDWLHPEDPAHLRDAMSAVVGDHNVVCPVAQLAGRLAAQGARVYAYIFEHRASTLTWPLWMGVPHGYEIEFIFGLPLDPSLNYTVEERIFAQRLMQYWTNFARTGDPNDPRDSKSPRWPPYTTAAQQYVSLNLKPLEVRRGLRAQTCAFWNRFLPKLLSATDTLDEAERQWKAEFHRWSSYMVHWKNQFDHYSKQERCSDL
Assay: biochemical
Details: rat striatum; 5 mM acetylthiocholine final; pH 7.2; Table 1; read-out: Inhibitory Concentration Brain AChE
pIC50: −log10 of the molar value.

molecule: CCCN(c1ccncc1)c1ccc2c(ccn2C)c1 [maleate]
pIC50: 4.50
